test system: LDLR mRNA; assay: Northern blot analysis of LDLR mRNA expression in HepG2 cells; type: cell-based, human; settings: each alkaloid 20 μg/ml, 8 h

>  <compound>
COc1ccc2c(c1OC)C(=O)O[C@@H]2[C@H]1c2cc3c(cc2CCN1C)OCO3 [HDT, β-hydrastine]

>  <LDLR mRNA expression (northern blot)>
no effects

$$$$
>  <compound>
COc1ccc2cc3[n+](cc2c1OC)CCc1cc2c(cc1-3)OCO2 [BBR, berberine]

>  <LDLR mRNA expression (northern blot)>
strong inducers

$$$$
>  <compound>
CN1CCc2cc3c(cc2C1O)OCO3 (stereo not shown) [HDTN, hydrastinine]

>  <LDLR mRNA expression (northern blot)>
no effects

$$$$
>  <compound>
COc1ccc2c(c1OC)CN1CCc3cc4c(cc3[C@H]1C2)OCO4 [CND, canadine]

>  <LDLR mRNA expression (northern blot)>
strong inducers

$$$$
